The values you see were collected from the supplement of paper PMC10567573.

B1: SEC22B (parent)
chain: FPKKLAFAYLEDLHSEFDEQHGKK

variants of: B1; test: protein stability index of a GFP-peptide fusion (GPS, HEK-293T) (PSI 1-6); higher = more stable; settings: c terminus: a fixed tail appended;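 note: lentivirally expressed fusions sorted by FACS into six bins by GFP to DsRed ratio, PSI derived from sequencing read proportions per bin multiplied by bin number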
value.kind: protein stability index
# respond with the number and nothing more

Worked set:
> print(dat)
                    residue.string  measured.value
1  FPKKLAFAYLEDLHSESDEQHGKK [F17S]            2.64
2  FPKKLAFAYLEDLHSEFDEQHGQK [K23Q]            2.81
3  FPKKLAFAYLEDLHSEFDEQHGVK [K23V]            2.67
4  FPKKLAFAYLTDLHSEFDEQHGKK [E11T]            2.64
5   FFKKLAFAYLEDLHSEFDEQHGKK [P2F]            2.62

// below: protein stability index requested for another variant
Problem: Let me know recorded protein stability index for FPKRLAFAYLEDLHSEFDEQHGKK [K4R] , thanks.
Result: 1.61
